FYI, the data here is from patent US20240382605A1.

Target: T1, hCD71-Nluc fusion protein (human, UniProt P02786 1-760)
T1 construct: whole, on cells; Used as crude membrane fractions of HEK293 cells stably expressing hCD71-Nluc; also called human transferrin receptor, CD71, fused to NanoLuc; not shown: NanoLuc (ProMega) luciferase joined through its N-terminal Val
T1 sequence (P02786 other isoform, or with tags, fused parts or gaps): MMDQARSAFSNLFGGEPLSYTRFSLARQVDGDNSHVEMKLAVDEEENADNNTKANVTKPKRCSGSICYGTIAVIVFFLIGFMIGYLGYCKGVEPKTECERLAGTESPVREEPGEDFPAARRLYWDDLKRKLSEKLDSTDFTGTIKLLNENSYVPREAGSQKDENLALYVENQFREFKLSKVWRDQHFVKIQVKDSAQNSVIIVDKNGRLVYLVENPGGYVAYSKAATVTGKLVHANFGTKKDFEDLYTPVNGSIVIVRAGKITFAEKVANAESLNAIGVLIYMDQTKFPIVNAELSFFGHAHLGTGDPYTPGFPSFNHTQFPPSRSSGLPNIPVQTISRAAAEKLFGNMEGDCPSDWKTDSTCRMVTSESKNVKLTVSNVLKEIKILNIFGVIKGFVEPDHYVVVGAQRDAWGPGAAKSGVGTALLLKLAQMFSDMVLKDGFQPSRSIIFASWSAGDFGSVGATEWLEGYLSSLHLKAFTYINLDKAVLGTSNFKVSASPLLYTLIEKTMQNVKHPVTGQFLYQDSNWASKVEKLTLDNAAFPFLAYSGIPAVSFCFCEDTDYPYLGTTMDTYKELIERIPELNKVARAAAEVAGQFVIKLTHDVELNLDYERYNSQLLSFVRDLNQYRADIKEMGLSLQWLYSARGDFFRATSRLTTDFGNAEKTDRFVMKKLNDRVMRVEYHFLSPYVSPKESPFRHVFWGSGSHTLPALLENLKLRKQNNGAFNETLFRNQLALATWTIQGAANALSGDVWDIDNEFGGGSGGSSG
Test: nanoBRET competition, tracer BCY17871-1598988 60 nM, HEK293 hCD71-Nluc membranes
Starred links: 1 amine or outer side, 2 acyl side, 3 side chain; linkers in the order of their positions; H or OH if unused. Positions of bridges follow the written chain, without caps; N, C: chain ends. No end group written: not given here. TATB = O=C(C[*:1])N1CN(C(=O)C[*:2])CN(C(=O)C[*:3])C1
measured_parameter: Ki (nM)
Give bare numbers, in nM.

Ac-CSPDAHLGCISYCEPW (linker 1-9-13 via TATB; not fully specified (C-terminus); printed as CSPDAHLGCISYCEPW[PEG24][K(N3)]; also: azide of C-terminal K(N3) clicked via BCN linker to oligonucleotide 1590463, also called Compound No. 1590463 conjugated to BCY19406) [1590463-BCY19406] | 2

Look up Ki for the entries below, preserving their order.
1. CSPDAHLGCISYCEPWGGSGGSX (not fully specified; as printed CSPDAHLGCISYCEPWGGSGGS[K(N3)]: N-terminal acetyl; C-terminal amidated; three Cys bound to molecular scaffold; [K(N3)] 6-azido lysine at 23 joined via BCN linker to oligonucleotide 1590463, also called Compound No. 1590463 conjugated to BCY19407) [1590463-BCY19407]
2. CSPDAHLGCISYCEPWX (not fully specified; as printed CSPDAHLGCISYCEPW[K(N3)]: N-terminal acetyl; C-terminal amide; three Cys bound to TATB scaffold; [K(N3)] 6-azido lysine at 17 joined via BCN linker to oligonucleotide 1590463, also called Compound No. 1590463 conjugated to BCY17873) [1590463-BCY17873]
3. Ac-CSPDAHLGCISYCEPW (linker 1-9-13 via TATB; not fully specified (C-terminus); printed as CSPDAHLGCISYCEPW[PEG10][K(N3)]; also: azide of C-terminal K(N3) clicked via BCN linker to oligonucleotide 1590463, also called Compound No. 1590463 conjugated to BCY19405) [1590463-BCY19405]

A.
1: 2; 2: 4; 3: 3
